System: UO-31 renal
Test description: NCI-60 one-dose screen, 48 h (100 = growth as untreated, 0 = no growth, -100 = all killed)
Particulars: 10 µM unless noted
This is part of a sample that, as a whole, favours compounds with a hit. Of some 83,000 tested, about 20% had one in any assay.
Quantity: growth (%)

INSERT INTO results (compound, assayed_system, quantity, unit_spec, data_value) VALUES
  ('N=C(N)c1ccc(-c2ccc(-c3ccccc3)s2)nc1', 'UO-31 renal', 'growth', '%', 79.9),
  ('CCOc1ccc(N2C(=O)CCSC2=S)cc1', 'UO-31 renal', 'growth', '%', 85.5),
  ('O=c1c(/C=C/c2c(O)ccc3ccccc23)nnc2sc(-c3cccc([N+](=O)[O-])c3)nn12', 'UO-31 renal', 'growth', '%', 20.1),
  ('CCCCN(CCC#N)C(N)=O', 'UO-31 renal', 'growth', '%', 98.4),
  ('CN(C)c1ccc(/C=C/C2=[N+](C)c3ccccc3C2(C)C)cc1', 'UO-31 renal', 'growth', '%', 19.4),
  ('O=C(OCc1ccc2c(Br)cc(Br)c(O)c2n1)N1CCN(C(=O)c2cc3ccccc3[nH]2)CC1', 'UO-31 renal', 'growth', '%', 12.8),
  ('CC(=O)c1ccc(Nc2nccc(-c3ccc(Cl)cc3)n2)cc1', 'UO-31 renal', 'growth', '%', 93.1),
  ('O=C(c1ccc(F)cc1)C1CCN(CCn2c(=O)[nH]c3ccccc3c2=O)CC1', 'UO-31 renal', 'growth', '%', 64.6),
  ('N#C/C(=N\Nc1ccccc1)C(=O)Nc1cc(-c2ccccc2)nn1-c1ccccc1', 'UO-31 renal', 'growth', '%', 29.7),
  ('COC(=O)c1nc(-c2ccc(C)cc2)oc1N1CCOCC1', 'UO-31 renal', 'growth', '%', 83.7),
  ('C=CN(C(=O)N1CCN(c2cc3c(cc2F)c(=O)c(C(=O)O)cn3C2CC2)CC1)c1nc(-c2ccc(C)cc2)cs1', 'UO-31 renal', 'growth', '%', 13.4),
  ('C#Cc1cccc(Nc2ncnc3ccc(-c4cnc(Cl)c(NS(C)(=O)=O)c4)cc23)c1', 'UO-31 renal', 'growth', '%', -80.8),
  ('O=[N+]([O-])c1ccc(Oc2cccc3c(Oc4ccc([N+](=O)[O-])cc4[N+](=O)[O-])cccc23)c([N+](=O)[O-])c1', 'UO-31 renal', 'growth', '%', 72.8),
  ('CCN1C(=O)N(CC)C2C1NC(=S)N2/N=C/C=C/c1cccs1 (stereo not drawn)', 'UO-31 renal', 'growth', '%', 44.9),
  ('c1ccc(-c2cn3nc(-c4c[nH]c5ccccc45)sc3n2)cc1', 'UO-31 renal', 'growth', '%', 46.4),
  ('CS(=O)(=O)c1cccc(Nc2ncc3cc(-c4ccccc4Cl)ccc3n2)c1', 'UO-31 renal', 'growth', '%', -3.98),
  ('COCCn1cc(-c2nc(-c3cc4cccnc4n3C)cs2)c2cc(OC)ccc21', 'UO-31 renal', 'growth', '%', 51),
  ('C=C1CC[C@@H]2[C@](C)(COC(C)=O)[C@H](OC(C)=O)CC[C@@]2(C)[C@@H]1CC(Nc1ccc(S(=O)(=O)Nc2nccc(C)n2)cc1)C1=CCOC1=O (stereo partly drawn)', 'UO-31 renal', 'growth', '%', 33.4),
  ('CO[C@H]1CC(c2ccc[nH]2)=N[C@]12O[C@@H](C)C[C@@H]1CCCCCCCc3ccc([nH]3)[C@H]12', 'UO-31 renal', 'growth', '%', -15.6),
  ('C=CCn1c(SCC(=O)Nc2ccc(C(=O)/C=C/c3ccc(Cl)cc3)cc2)nnc1-c1ccccc1', 'UO-31 renal', 'growth', '%', 76.5),
  ('O=C(Nc1cccc2c1C(=O)c1cccc(NC(=O)c3ccc(C(=O)Nc4cccc5c4C(=O)c4cccc(NC(=O)c6ccccc6)c4C5=O)cc3)c1C2=O)c1ccccc1', 'UO-31 renal', 'growth', '%', 72.9),
  ('CC1(C)CC(=O)C2=C(C1)OC(C(=O)c1ccccc1)C2c1cccc(Oc2ccccc2)c1 (stereo not drawn)', 'UO-31 renal', 'growth', '%', 15.6),
  ('C(CCCSC1=NCCN1)CCSC1=NCCN1', 'UO-31 renal', 'growth', '%', 80.3),
  ('COc1ccc(-c2cc(-c3ccc(Nc4nc(Nc5ccc(Cl)cc5)nc(Nc5ccc(Cl)cc5)n4)cc3)no2)cc1', 'UO-31 renal', 'growth', '%', 65.3),
  ('Cc1ccc(C(=O)Nc2ccc(CN3CCN(C)CC3)c(C(F)(F)F)c2)cc1C#Cc1cnc(N)c2ccccc12', 'UO-31 renal', 'growth', '%', -34.9),
  ('Cn1cc(-c2ccc3c(Nc4cccc(NC(=O)Nc5cccc(F)c5)c4)ncnc3c2)cn1', 'UO-31 renal', 'growth', '%', 23.7),
  ('COC(=O)CCc1c(/C=C2\N=C(c3ccc[nH]3)C=C2OC)[nH]c(C)c1C(=O)OCc1ccccc1', 'UO-31 renal', 'growth', '%', -67.2),
  ('CCOC(=O)CCC(=O)P(=O)(O)O', 'UO-31 renal', 'growth', '%', 105),
  ('CC(=O)O[C@H]1CC[C@@]2(C)C(=CC[C@@H]3[C@@H]2CC[C@]2(C)C(Cl)=C(c4nc5ccc(Cl)cn5c4NC(C)(C)C)C[C@@H]32)C1', 'UO-31 renal', 'growth', '%', 86.6),
  ('Cc1ccc(C2(C)NC(=O)N(CC(=O)Nc3cccc(C)c3)C2=O)cc1 (stereo not drawn)', 'UO-31 renal', 'growth', '%', 82),
  ('C=C(C)Cn1c(SCC(=O)c2cccs2)nc2sc3c(c2c1=O)CCCC3', 'UO-31 renal', 'growth', '%', 58.6),
  ('CCN1C(=O)N(CC)C2C1NN=c1s/c(=C\c3ccccc3)c(=O)n12 (stereo not drawn)', 'UO-31 renal', 'growth', '%', 37.9),
  ('N#CC1=C(N)Oc2c(ccc3ccccc23)C1c1cc2ccccc2n2nnnc12 (stereo not drawn)', 'UO-31 renal', 'growth', '%', 25.9),
  ('CC(C)(C)n1cc(-c2ccnc(NCCNS(=O)(=O)c3ccc(Br)cc3)c2)c(-c2cccc(O)c2)n1', 'UO-31 renal', 'growth', '%', 22.7),
  ('O=C(Nc1ncc(Cc2cc(C(F)(F)F)ccc2Cl)s1)C(=S)N1CCOCC1', 'UO-31 renal', 'growth', '%', 69.5),
  ('O=c1ccc2c(ccc3ncccc32)o1', 'UO-31 renal', 'growth', '%', 77.1),
  ('O=C1Nc2ccccc2/C1=C/c1cccn1CCCCCCn1c2ccccc2c(=O)c2ccccc21', 'UO-31 renal', 'growth', '%', 56.2),
  ('COc1cccc(C2C(C#N)=C(N)Oc3c2ccc2ccccc32)c1 (stereo not drawn)', 'UO-31 renal', 'growth', '%', 43);

Reference source: PubChem BioAssay (NCI)
